Experiment: Hepatic clearance in human liver microsomes in presence of NADPH by LC-MS/MS analysis
Assay type: ADME, Microsome
Recorded Metric: CLhep predicted (mL/min/kg)
One number for each entry, in mL/min/kg.

// query Using known records, supply CLhep predicted for C/C(=N\Nc1nc2ccccc2n1C1CN(C2CCN(c3cccc4c3C(=O)N(C3CCC(=O)NC3=O)C4=O)CC2)C1)c1ccccn1 (stereo unspecified)
// result 18.7

###

Target: von Hippel-Lindau disease tumor suppressor/Nuclear receptor coactivator 3 (Homo sapiens) (UniProt Q9Y6Q9+P40337)
Sequence (P40337 whole entry, looked up): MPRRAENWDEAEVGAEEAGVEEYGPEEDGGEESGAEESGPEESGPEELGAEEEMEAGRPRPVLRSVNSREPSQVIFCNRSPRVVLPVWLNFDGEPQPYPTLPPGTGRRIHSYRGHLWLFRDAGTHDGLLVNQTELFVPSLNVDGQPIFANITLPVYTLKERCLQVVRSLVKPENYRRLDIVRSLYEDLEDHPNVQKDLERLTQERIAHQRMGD
Sequence (Q9Y6Q9 whole entry, looked up): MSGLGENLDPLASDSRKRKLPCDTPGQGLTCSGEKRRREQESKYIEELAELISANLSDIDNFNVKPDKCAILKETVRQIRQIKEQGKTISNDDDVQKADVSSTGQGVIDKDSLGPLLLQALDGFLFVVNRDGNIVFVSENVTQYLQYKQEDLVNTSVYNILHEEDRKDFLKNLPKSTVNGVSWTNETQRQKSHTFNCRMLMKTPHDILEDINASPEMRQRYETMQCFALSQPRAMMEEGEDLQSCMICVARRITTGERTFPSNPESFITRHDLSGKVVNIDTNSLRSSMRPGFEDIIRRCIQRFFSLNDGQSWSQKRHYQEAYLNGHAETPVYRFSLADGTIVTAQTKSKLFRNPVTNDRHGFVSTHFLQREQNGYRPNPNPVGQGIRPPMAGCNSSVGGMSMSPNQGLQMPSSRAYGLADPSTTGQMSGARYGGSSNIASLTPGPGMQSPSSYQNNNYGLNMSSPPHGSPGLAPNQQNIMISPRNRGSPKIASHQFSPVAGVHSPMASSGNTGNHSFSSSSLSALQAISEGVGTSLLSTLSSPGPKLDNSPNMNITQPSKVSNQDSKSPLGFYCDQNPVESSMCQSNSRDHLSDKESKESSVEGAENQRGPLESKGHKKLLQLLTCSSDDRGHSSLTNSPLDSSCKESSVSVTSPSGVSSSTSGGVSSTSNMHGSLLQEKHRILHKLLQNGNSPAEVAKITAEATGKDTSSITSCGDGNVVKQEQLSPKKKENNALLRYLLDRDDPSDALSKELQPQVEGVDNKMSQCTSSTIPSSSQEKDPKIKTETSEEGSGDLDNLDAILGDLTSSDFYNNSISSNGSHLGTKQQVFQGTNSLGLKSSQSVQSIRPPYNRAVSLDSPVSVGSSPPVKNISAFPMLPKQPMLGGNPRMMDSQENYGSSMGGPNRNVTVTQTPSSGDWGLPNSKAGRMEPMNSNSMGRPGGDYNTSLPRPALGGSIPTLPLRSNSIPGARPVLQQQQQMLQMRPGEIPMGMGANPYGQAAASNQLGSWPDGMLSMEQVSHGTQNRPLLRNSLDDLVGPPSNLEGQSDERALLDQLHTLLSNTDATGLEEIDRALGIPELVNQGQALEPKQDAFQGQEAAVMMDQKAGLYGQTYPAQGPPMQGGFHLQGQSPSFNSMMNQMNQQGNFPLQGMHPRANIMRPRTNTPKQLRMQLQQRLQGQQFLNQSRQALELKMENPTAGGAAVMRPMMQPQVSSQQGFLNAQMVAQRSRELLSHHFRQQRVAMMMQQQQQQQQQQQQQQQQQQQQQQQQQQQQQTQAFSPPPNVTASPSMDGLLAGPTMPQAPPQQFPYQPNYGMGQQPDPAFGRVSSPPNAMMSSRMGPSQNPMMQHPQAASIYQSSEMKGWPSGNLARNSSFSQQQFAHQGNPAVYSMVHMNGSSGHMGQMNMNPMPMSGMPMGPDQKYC
Test: PROTAC activity at VHL/SRC-3 in human MCF7 cells assessed as induction of SRC-3 degradation at 1 uM incubated for 24 hrs by immunoblot analysis relative to control
Assay type: cell-based
Recorded Metric: Activity (%)
One number for each entry, in %.

Please look at the items below and tell me Activity for each one, in order.
1. C/C(=N\Nc1nc2ccccc2n1CCNC(=O)CCCCCCCCN[C@H](C(=O)N1C[C@H](O)C[C@H]1C(=O)N[C@@H](C)c1ccc(-c2scnc2C)cc1)C(C)(C)C)c1ccccn1
2. C/C(=N\Nc1nc2ccccc2n1CCNC(=O)CCCCCN[C@H](C(=O)N1C[C@H](O)C[C@H]1C(=O)N[C@@H](C)c1ccc(-c2scnc2C)cc1)C(C)(C)C)c1ccccn1
3. C/C(=N\Nc1nc2ccccc2n1CCNC(=O)CCCCCCN[C@H](C(=O)N1C[C@H](O)C[C@H]1C(=O)N[C@@H](C)c1ccc(-c2scnc2C)cc1)C(C)(C)C)c1ccccn1
4. C/C(=N\Nc1nc2ccccc2n1CCNC(=O)CCCCCCCCCCN[C@H](C(=O)N1C[C@H](O)C[C@H]1C(=O)N[C@@H](C)c1ccc(-c2scnc2C)cc1)C(C)(C)C)c1ccccn1
5. C/C(=N\Nc1nc2ccccc2n1CCNC(=O)CCCCCCCN[C@H](C(=O)N1C[C@H](O)C[C@H]1C(=O)N[C@@H](C)c1ccc(-c2scnc2C)cc1)C(C)(C)C)c1ccccn1
6. C/C(=N\Nc1nc2ccccc2n1CCNC(=O)CCCCCCCCCN[C@H](C(=O)N1C[C@H](O)C[C@H]1C(=O)N[C@@H](C)c1ccc(-c2scnc2C)cc1)C(C)(C)C)c1ccccn1
7. C/C(=N\Nc1nc2ccccc2n1CC1CCN(CC(=O)N[C@H](C(=O)N2C[C@H](O)C[C@H]2C(=O)N[C@@H](C)c2ccc(-c3scnc3C)cc2)C(C)(C)C)CC1)c1ccccn1

// result
1. 68
2. 8
3. 62
4. 62
5. 56
6. 63
7. 21
